Every entry's value here was drawn from ChEMBL document CHEMBL4622992.

- assayInfo: Toxicity index, ratio of IC50 for toxicity in CHO cells to concentration of test compound causing at least 8 times decrease of MIC of almost 3 antibiotics (chloramphenicol/nalidixic acid/doxycycline/erythromycin ) against Enterobacter aerogenes Ea289
- Assay type: cell-based
- conditions: hamster, pooled result: one value given for 2 cell lines, strains, targets or settings
Respond with met for selectivity ratio values of 4 and above, not met for values below.

Use these answered entries as a reference point.
CC(C)=CCC/C(C)=C\CCC(C)=CCNCCCNCCCN = not met
CC(C)=CCCC(C)=CCNCCCNCCCCNCCCN = met
CC(C)=CCC/C(C)=C\CCC(C)=CCNCCNCCNCCNCCNCCN = met
CC(C)=CCCC(C)=CCNCCNCCNCCN = not met
CC(C)=CCCC(C)=CCNCCCN(C)CCCN = not met

Turning to the following compound.
Item CC(C)=CCC/C(C)=C\CCC(C)=CCNCCCNCCCCNCCCN with selectivity ratio of 4 or above?
met
